Value source: patent US10370339B2

Molecular target: IDH1 R132H enzyme (Homo sapiens (Human), UniProt O75874, R132H)
Sequence (O75874 whole entry R132H): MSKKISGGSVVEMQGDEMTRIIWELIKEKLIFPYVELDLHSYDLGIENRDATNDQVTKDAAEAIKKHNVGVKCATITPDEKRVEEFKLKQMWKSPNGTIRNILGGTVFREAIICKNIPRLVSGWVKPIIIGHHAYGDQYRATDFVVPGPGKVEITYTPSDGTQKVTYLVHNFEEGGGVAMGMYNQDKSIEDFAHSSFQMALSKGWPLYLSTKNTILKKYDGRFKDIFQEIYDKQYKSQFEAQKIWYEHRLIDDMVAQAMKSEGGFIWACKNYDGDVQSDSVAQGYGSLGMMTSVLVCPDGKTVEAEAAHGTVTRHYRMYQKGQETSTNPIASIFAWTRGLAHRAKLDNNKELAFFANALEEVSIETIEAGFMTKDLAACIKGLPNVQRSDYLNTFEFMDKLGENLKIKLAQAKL
Assay: Mutant IDH1 R132H biochemical assay
Conditions: NADPH consumption, luminescent readout; 1.5 nM enzyme, 1 μM NADPH, 250 μM α-KG, 30 minutes, 32° C.
# pIC50 per record follows
Notebook: values listed as pIC50 are -log10 of the concentration (mol/L).

Below, 3 molecules whose answers are already recorded.
| SMILES INPUT | pIC50 |
| --- | --- |
| COc1cc2c(cc1C(=O)O)nc(Nc1ccc(OC(F)(F)F)cc1)n2[C@@H]1C[C@H](C)CC[C@H]1C(C)C | 7.80 |
| COC(=O)c1cc2nc(Nc3ccc(OC(C)C)cc3)n([C@@H]3C[C@H](C)CC[C@H]3C(C)C)c2cc1C | 6.66 |
| COC(=O)c1ccc2c(c1)nc(Nc1ccc(C(C)C)cc1)n2[C@@H]1C[C@H](C)CC[C@H]1C(C)C | 7.19 |

Give a short answer stating reported pIC50 for "COC(=O)c1cc2nc(Nc3ccc(C(C)C)cc3)n([C@@H]3C[C@H](C)CC[C@H]3C(C)C)c2cc1C" . 7.40

Output pIC50 of "Cc1cc2c(cc1C(=O)O)nc(Nc1ccc(OC(C)C)cc1)n2[C@@H]1C[C@H](C)CC[C@H]1C(C)C" 7.82

Please report pIC50 for the following molecule: "COC(=O)c1cc2nc(Nc3ccc(OC(F)(F)F)cc3)n([C@@H]3C[C@H](C)CC[C@H]3C(C)C)c2cc1OC" 7.00
